Each entry below carries its reported SI Caco-2.
System: Caco-2 cells
Assay: MTT anticancer assay
Type: cell-based
Details: IC50 Wi-38 / IC50 Caco-2
// response body must contain only the number

Examples with answers:
[
  {
    "compound": "Cc1ccc(-c2nnc(Nc3ccc(N)cc3)c3ccccc23)cc1 [Compound C1]",
    "data_value": 15.94
  },
  {
    "compound": "O=C(Nc1ccc(Nc2c3ccccc3nc3ccccc23)cc1)c1cc2ccccc2oc1=O [Compound B]",
    "data_value": 25.93
  },
  {
    "compound": "Nc1ccc(Nc2ccnc3cc(Cl)ccc23)cc1 [Compound A1]",
    "data_value": 4.59
  },
  {
    "compound": "Cc1ccc(-c2nnc(Nc3ccc(NC(=O)c4cc5ccccc5oc4=O)cc3)c3ccccc23)cc1 [Compound C]",
    "data_value": 19.25
  }
]

Lab note: Nc1ccc(Nc2c3ccccc3nc3ccccc23)cc1 [Compound B1] gave SI Caco-2 of 8.07

Lab note: O=c1[nH]cc(F)c(=O)[nH]1 [Compound 5-FU, 5-fluorouracil, reference compound] gave SI Caco-2 of 0.85

Lab note: O=C(Nc1ccc(Nc2ccnc3cc(Cl)ccc23)cc1)c1cc2ccccc2oc1=O [Compound A] gave SI Caco-2 of 15.38
